molecular target: human melanocortin-4 receptor (human) (UniProt P32245); test: [I125]-NDP-α-MSH competition, hMC4r HEK-293 membranes
Sequence (P32245 whole entry): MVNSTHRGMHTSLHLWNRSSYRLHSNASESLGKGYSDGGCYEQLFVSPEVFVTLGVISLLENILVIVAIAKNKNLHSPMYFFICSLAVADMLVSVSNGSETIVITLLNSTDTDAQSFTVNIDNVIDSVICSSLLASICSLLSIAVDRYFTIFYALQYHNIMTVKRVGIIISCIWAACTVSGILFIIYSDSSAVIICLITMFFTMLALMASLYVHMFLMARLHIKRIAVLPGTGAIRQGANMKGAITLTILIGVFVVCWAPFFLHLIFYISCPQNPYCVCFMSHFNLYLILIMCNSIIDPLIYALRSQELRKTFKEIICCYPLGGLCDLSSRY
Bridge positions count the residues as written; N and C are the ends. Square brackets hold non-standard residues; d marks the D form. Nle = CCCC[C@H](N)C(=O)O; Dab = NCC[C@H](N)C(=O)O; Dap = NC[C@H](N)C(=O)O
Readout: Ki (µM)
The answer is to be given in µM; state only the numeric part.

Ac-[Nle]EH[dF]A[Dab]W-NH2 (lactam 2-6; SMILES CCCC[C@H](NC(C)=O)C(=O)N[C@H]1CCC(=O)NCC[C@@H](C(=O)N[C@@H](Cc2c[nH]c3ccccc23)C(N)=O)NC(=O)[C@H](C)NC(=O)[C@@H](Cc2ccccc2)NC(=O)[C@H](Cc2c[nH]cn2)NC1=O) [Ac-Nle-cyclo(Glu-His-D-Phe-Ala-Dab)-Trp-NH2] :: 10
Ac-[Nle]EH[dF]R[Dab]K-NH2 (lactam 2-6; SMILES CCCC[C@H](NC(C)=O)C(=O)N[C@H]1CCC(=O)NCC[C@@H](C(=O)N[C@@H](CCCCN)C(N)=O)NC(=O)[C@H](CCCNC(=N)N)NC(=O)[C@@H](Cc2ccccc2)NC(=O)[C@H](Cc2c[nH]cn2)NC1=O) [Ac-Nle-cyclo(Glu-His-D-Phe-Arg-Dab)-Lys-NH2] :: 7.38
Ac-[Nle]EH[dF]G[Dab]W-NH2 (lactam 2-6; SMILES CCCC[C@H](NC(C)=O)C(=O)N[C@H]1CCC(=O)NCC[C@@H](C(=O)N[C@@H](Cc2c[nH]c3ccccc23)C(N)=O)NC(=O)CNC(=O)[C@@H](Cc2ccccc2)NC(=O)[C@H](Cc2c[nH]cn2)NC1=O) [Ac-Nle-cyclo(Glu-His-D-Phe-Gly-Dab)-Trp-NH2] :: 10
Ac-[Nle]EH[dF]R[Dab]A-NH2 (lactam 2-6) [Ac-Nle-cyclo(Glu-His-D-Phe-Arg-Dab)-Ala-NH2] :: 7.48
Ac-[Nle]EP[dF]R[Dab]W-NH2 (lactam 2-6; SMILES CCCC[C@H](NC(C)=O)C(=O)N[C@H]1CCC(=O)NCC[C@@H](C(=O)N[C@@H](Cc2c[nH]c3ccccc23)C(N)=O)NC(=O)[C@H](CCCNC(=N)N)NC(=O)[C@@H](Cc2ccccc2)NC(=O)[C@@H]2CCCN2C1=O) [Ac-Nle-cyclo(Glu-Pro-D-Phe-Arg-Dab)-Trp-NH2] :: 0.185

Lab note: next binder to report on.
Measured Ki, Ac-[Nle]DH[dF]R[Dap]W-NH2 (lactam 2-6; SMILES CCCC[C@H](NC(C)=O)C(=O)N[C@H]1CC(=O)NC[C@@H](C(=O)N[C@@H](Cc2c[nH]c3ccccc23)C(N)=O)NC(=O)[C@H](CCCNC(=N)N)NC(=O)[C@@H](Cc2ccccc2)NC(=O)[C@H](Cc2c[nH]cn2)NC1=O) [Ac-Nle-cyclo(Asp-His-D-Phe-Arg-Dap)-Trp-NH2] : 1.32
